Data origin, for the record: ChEMBL document CHEMBL1122438

Assignment: determine reported LD50 for the given compounds.
# Experimental Details: Toxic activity is expressed as LD50 values
# Type: toxicity, organism-based
# Measurement Parameters: mouse, in vivo
Answer format: value, then unit.

[ask] Item under review: COc1ccc2c(c1)c(CC(=O)O)c(C)n2C(=O)c1ccc(Cl)cc1 [INDOMETHACIN] . Reported LD50?
[reply] 19.9 mg/kg

[ask] Item under review: CCn1ccc(=O)n2nc(-c3ccccc3)cc12 . Reported LD50?
[reply] 271 mg/kg

[ask] Item under review: CCCCC1C(=O)N(c2ccccc2)N(c2ccccc2)C1=O [PHENYLBUTAZONE] . Reported LD50?
[reply] 238 mg/kg

[ask] Item under review: Cn1ccc(=O)n2nc(-c3ccccc3)cc12 . Reported LD50?
[reply] 127 mg/kg
